- ASSAY_REMARKS: soluble fraction after stress (log2 fold change); higher = more stays soluble; pooled small domains, quantitative proteomics
- RUN_PARAMETERS: stress: pH 4
# thresholds on soluble fraction (log2) define classes: label 0 (below -0.5), label 1 (-0.5 to below 0.06), label 2 (0.06 or more)

CHAIN: HMGDPYAILGLLPGASMEDVRHAWRRQAAENHPDRMLQRGAPPEFVEIAREKTAAINAAYARIREELSI
ASSIGNED_CLASS: label 0

Exercise: State the class of the sequence shown: HMSEVIYVAEDNVGQRIDVFLVNKLVDASRANIQKNIVDGVILVNNKNVKANYKLRLGDVVEIRTQ
Solution: label 1

Exercise: Another sequence to check: HMSQLTVGTVVTGNASLQTQGLKLPSFASGSRPASPNIGQMIWNSSDAKAQIWNGSEWDDVG
Solution: label 2

Exercise: Another sequence to check: HMTGSALDATIEKLLDLGSKAGSVTEDEIQIVLKNVDVTDAQLSSIYQFLRDRGVEIVSATEDDD
Solution: label 0
